Tested on: MDA-MB-231
method_notes: NCI tumour cell line growth inhibition, 48 h
Activity calls are given as the source filed them. Cut-off read from the data, not from the text of the source: active = GI50 up to about 1.1 µM and inactive = higher. Square brackets hold non-standard residues; d marks the D form. Peptide text beside a SMILES is read from it. * marks the point of attachment. X26 = COC1=CC(=O)N(C(=O)[C@@H](O*)C(C)C)[C@H]1Cc1ccccc1; NMeV = CN[C@H](C(=O)O)C(C)C; Hexanoyl = CCCCCC(=O)*
endpoint: GI50

Requested field: GI50. Item: "O=c1c2ccccc2sc2ccccc12"
> 100 µM (inactive)

Please do the same for COc1ccc(C2SC(=N)Nc3c2c(C)nn3C(=O)c2ccc(Cl)cc2)cc1OC (centres undefined) as well.
> 10 µM (inactive)

Please do the same for CCCCCC(=O)N[C@H](C(=O)N[C@H](C(=O)N(C)[C@H](C(=O)N1CCC[C@H]1C(=O)N1CCC[C@H]1C(=O)O[C@H](C(=O)N1C(=O)C=C(OC)[C@@H]1Cc1ccccc1)C(C)C)C(C)C)C(C)C)C(C)C (Hexanoyl-VV[NMeV]PP-X26) as well.
34.2 µM (inactive)

Please do the same for "Cc1ccc(-c2cc(N)n(-c3nc4c([nH]3)c(=O)n(C)c(=O)n4C)n2)cc1" as well.
8.97 µM (inactive)

Please do the same for "Cc1cc(C)cc(Nc2cc(O)nc(O)n2)c1" as well.
> 100 µM (inactive)

Please do the same for "COc1cc(S(=O)(=O)N/N=C/c2cc(Br)c(O)c(OC)c2)c(OC)cc1NC(C)=O" as well.
52.6 µM (inactive)

Please do the same for OCC1OC(n2cnc3c2NC=NC[C@H]3O)CC1O (some centres undefined) as well.
> 500 µM (inactive)

Please do the same for "Nc1ccccc1N/C=C\C(=O)C(Cl)(Cl)Cl" as well.
47.1 µM (inactive)

Please do the same for "Cn1nc(S(N)(=O)=O)s/c1=N/S(=O)(=O)c1ccc(N)cc1" as well.
> 100 µM (inactive)
